Data credit: the supplement of paper PMC10724198

# Test system: Saccharomyces cerevisiae;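 note: PSI is a weighted mean of sequencing reads over stability bins, variants kept only with over 10 reads, mCherry proximal and sfGFP distal, peptide attached via GGGS linker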
# Protocol summary: protein stability index of tFT-peptide fusion (C-terminal peptide) (PSI (0-1 scale)); higher = more stable (slower turnover)
# Experimental parameters: genetic background: wild type; temperature: 30 C
Property: protein stability index

INSERT INTO results (ordered_residues, experimental_system, result_number) VALUES
  ('EWVPDIANLRRR', 'Saccharomyces cerevisiae', 0.752),
  ('SSLPPPRLFLLP', 'Saccharomyces cerevisiae', 0.697),
  ('TATPQRQPHKSP', 'Saccharomyces cerevisiae', 0.706),
  ('RLKGSPHPVFLY', 'Saccharomyces cerevisiae', 0.753),
  ('WGRGETLCSSVP', 'Saccharomyces cerevisiae', 0.72),
  ('IFRERWGCFEAI', 'Saccharomyces cerevisiae', 0.763),
  ('GACWRDSHSGGD', 'Saccharomyces cerevisiae', 0.683),
  ('HQYSRHASIRTL', 'Saccharomyces cerevisiae', 0.623),
  ('IRRLCGSSRPLP', 'Saccharomyces cerevisiae', 0.708),
  ('ELEIRSLCPDVV', 'Saccharomyces cerevisiae', 0.694),
  ('PVPLPSSSPSPY', 'Saccharomyces cerevisiae', 0.663),
  ('FGCISAGLGWMY', 'Saccharomyces cerevisiae', 0.721),
  ('IVPPALRSDGRR', 'Saccharomyces cerevisiae', 0.668),
  ('MWRWRAHVDRFR', 'Saccharomyces cerevisiae', 0.683),
  ('RGMGPGAFVSGQ', 'Saccharomyces cerevisiae', 0.677),
  ('GVIRGNRLELIV', 'Saccharomyces cerevisiae', 0.618),
  ('DTLFNRFLHTSI', 'Saccharomyces cerevisiae', 0.69),
  ('WCSRRIDWSSAP', 'Saccharomyces cerevisiae', 0.732),
  ('SPCRSPPPDLPQ', 'Saccharomyces cerevisiae', 0.645),
  ('GVRRVAVLYLLY', 'Saccharomyces cerevisiae', 0.527),
  ('GKNRKKEEHAKR', 'Saccharomyces cerevisiae', 0.702),
  ('PCCYAGLHFFLG', 'Saccharomyces cerevisiae', 0.626),
  ('ISAVLFFLYLSF', 'Saccharomyces cerevisiae', 0.308),
  ('IRHALHFRVVAV', 'Saccharomyces cerevisiae', 0.48),
  ('RKAPLLFSLSHK', 'Saccharomyces cerevisiae', 0.676),
  ('LHPTPPPVLAPP', 'Saccharomyces cerevisiae', 0.654),
  ('RLRRCPWLRAWR', 'Saccharomyces cerevisiae', 0.709),
  ('SPCLPRGVLFLA', 'Saccharomyces cerevisiae', 0.367),
  ('LWCPLPHGVLLL', 'Saccharomyces cerevisiae', 0.608),
  ('SLGVPVVWGLWI', 'Saccharomyces cerevisiae', 0.744),
  ('LDVGYVLGLERS', 'Saccharomyces cerevisiae', 0.681),
  ('LLFSRVDFSSPL', 'Saccharomyces cerevisiae', 0.804),
  ('EGGIKGKKVRTW', 'Saccharomyces cerevisiae', 0.66),
  ('PCSPRLPPFPSP', 'Saccharomyces cerevisiae', 0.683),
  ('ILFWSLLVSTIR', 'Saccharomyces cerevisiae', 0.177);
